# experimental target: T1, murine GPC3-his protein (Sino Biological, Cat. No. 50989-M08B) (murine, UniProt Q8CFZ4 25-558)
# T1 construct: Bought protein; also called murine GPC3 protein
# T1 sequence (Q8CFZ4 25-558 limits assumed): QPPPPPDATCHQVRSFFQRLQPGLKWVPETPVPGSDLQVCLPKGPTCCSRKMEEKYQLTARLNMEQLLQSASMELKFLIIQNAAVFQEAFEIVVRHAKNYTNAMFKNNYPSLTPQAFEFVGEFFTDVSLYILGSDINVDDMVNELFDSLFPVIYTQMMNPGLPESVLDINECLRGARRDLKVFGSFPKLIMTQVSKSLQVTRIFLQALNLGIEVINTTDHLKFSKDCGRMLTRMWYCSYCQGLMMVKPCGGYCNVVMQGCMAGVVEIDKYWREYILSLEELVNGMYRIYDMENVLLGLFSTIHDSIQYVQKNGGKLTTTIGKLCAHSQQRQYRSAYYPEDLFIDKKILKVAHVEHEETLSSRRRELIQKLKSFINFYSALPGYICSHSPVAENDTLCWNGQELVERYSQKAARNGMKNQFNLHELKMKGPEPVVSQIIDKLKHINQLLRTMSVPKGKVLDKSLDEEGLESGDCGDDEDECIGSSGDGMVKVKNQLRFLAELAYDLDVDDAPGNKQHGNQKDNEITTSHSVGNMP
# test: ELISA, coated murine GPC3-His;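 also: antigen coated on plates at 1 µg/mL, test antibody bound for 2 h at 37 °C, detected with HRP-conjugated secondary antibody and TMB substrate after acid stop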
quantity measured: OD450 at 1 nM antibody (OD450 nm)
Record the value in OD450 nm, omitting the unit from your answer.

Here is how some binders turned out for OD450 at 1 nM antibody.
>>> recorded_value("F1.62.9 human-murine chimeric antibody (antibody, human IgG1, kappa, V domains shown) VH: QVQLQQSDAELVKPGASVKISCKVSGYIFTDHTIHWMKQRPEQGLEWIGYIYPRDGSIKYNENFKGKATLTADKSSSATYMQLNSLTSEDSAVYFCARPIYYDYAYYFDYWGQGTTLTVSS VL: DVVMTQSPLSLPVSLGDQASISCRSRQSLVHSNGNTYLHWYLQKPGQSPKVLIYKVSNRFSGVPDRFSGSGSGTDFTLKISRVEAEDLGVYFCSQSTHVPYTFGGGTKLEIKR")
0.04
>>> recorded_value("F1.136.7 human-murine chimeric antibody (antibody, human IgG1, kappa, V domains shown) VH: EVQLQQSGPVMVKPGPSVKISCQTSGFTFTDYYIHWVKQSHGKSLEWIGLVFPYDGGTNYNQKFKDKATLTLDTSSSTAYMELNSLTSEDSAVYYCARAGGFSYALNYWGQGTSVTVSS VL: DIQMTQSPSSLSASLGGKVTITCKASQDINNYIAWYQHKPGKGPRLLIHFTSTLQPGIPSRFSGSGSGRDYSFSISNLEPEDIATYYCLQYDNLLLTFGAGTKLELKR")
0.17

--- query ---
Report OD450 at 1 nM antibody for F2.55.11 human-murine chimeric antibody (antibody, human IgG1, kappa, V domains shown) VH: EVKLVESGGGLVKPGGSLKLSCAASGLTFSTCTMSWVRQTPAKRLEWVATISSGGGNTYYPDSVKGRFTISRDNARNTLYLQMSSLRSEDTAMYYCVRLYYDGSPYAMDYWGQGTSVTVSS VL: DIQMTQTTSSLSASLGDRVTISCRASQDISNHLNWYQQKPDGTVKLLIYYTSRLHSGVPSRFSGSGSGTDYSLTISNLEQEDIATYFCQQDSKPPPTFGSGTKLEIKR please. 0.05
